Attribution: patent US11492347B2

In this section we review reported Time (in minutes) to achieve 50% loss of bound cluster (Absorbance 458 nm) values for a set of compounds.
Target: CISD2 Gene Product (NAF-1) (Homo sapiens)
Sequence (Q8N5K1 57-135 limits assumed): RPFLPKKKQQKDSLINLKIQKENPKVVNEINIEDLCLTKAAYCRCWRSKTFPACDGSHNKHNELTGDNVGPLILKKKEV
Test: Stability of Fe-S cluster binding of purified NEET protein (absorbance 458 nm)
Format: biochemical
Conditions: NAF-1 20 μM, compound 60 μM, pH 6, 37° C., run time 500 minutes; vehicle control 310 or 210
Protocol: The modulator effect on the NEET proteins encoded by human CISD1, CISD2, and CISD3 genes by the compounds of the invention has been tested and is reported below. Particularly, the biochemical function of the NEET proteins is measured by the stability of Fe—S cluster binding of the purified NEET proteins. The Fe—S cluster binding capacity of NEET proteins is known to be coordinated by four amino-acids in a stretch of 16 (three Cysteine and one Histidine). […]

Study these solved cases before continuing.
>  <smiles data>
CC1(C)CCc2sc(NC(=O)c3ccccc3)c(C(=O)O)c21

>  <result>
280 (210) minutes

$$$$
>  <smiles data>
COC1CN(c2ccc(C(=O)Nc3sc4c(c3C(=O)O)CCC(C)(C)C4)cc2)C1

>  <result>
85 (310) minutes

$$$$
>  <smiles data>
COc1ccc(C(=O)Nc2sc3c(c2C(=O)O)CCC(C)(C)C3)cc1

>  <result>
300 (310) minutes

$$$$

Could you now consider this next compound?
Per the records, this compound ( CC1(C)Cc2c(sc(NC(=O)c3ccc(Br)cc3)c2C(=O)O)C(C)(C)C1 ) has Time (in minutes) to achieve 50% loss of bound cluster (Absorbance 458 nm) equal to 435 (210) minutes

###

Form field: pIC50 (one value per entry).
test system: H1N1 (influenza A/New Caledonia/20/99); assay: microbe, parasite or virus in culture; type: cell-based; details: H1N1, A549, 48 h
Note on units: pIC50 is unitless, being -log10 of a concentration expressed in mol/L.

Completed entries (count: 3):
>  <compound>
COCCNc1ccc(C(=O)Nc2sc3c(c2C(=O)O)C(C)(C)CC3)cc1 [Compound #64]

>  <quantity>
pIC50

>  <recorded number>
7.05

$$$$
>  <compound>
CC1(C)Cc2c(sc(NC(=O)c3ccc(NCC4CCCOC4)cc3)c2C(=O)O)C(C)(C)C1 (stereo not shown) [Compound #141]

>  <quantity>
pIC50

>  <recorded number>
8.48

$$$$
>  <compound>
O=C(Nc1sc2c(c1C(=O)O)CCC1(CC1)C2)c1ccc(N2CCOCC2)cc1 [Compound #31]

>  <quantity>
pIC50

>  <recorded number>
7.00

$$$$

Turning now to a further record.
The value of pIC50 measured for the compound COC1CN(c2ccc(C(=O)Nc3sc4c(c3C(=O)O)C(C)(C)CC4)cc2)C1 [Compound #146] turned out to be 7.08

###

system: H1N1 (influenza A/New Caledonia/20/99); experiment: microbe, parasite or virus in culture; assay type: cell-based; conditions: H1N1, A549, 48 h
quantity: pIC50
// returns pIC50 (minus log10 of molar concentration), number only

>  <molecule>
COCC1CN(c2ccc(C(=O)Nc3sc4c(c3C(=O)O)CC(C)(C)CC4(C)C)cc2)C1

>  <tested on>
H1N1 (influenza A/New Caledonia/20/99)

>  <quantity>
pIC50

>  <recorded number>
7.81

$$$$
>  <molecule>
CC1(C)Cc2c(sc(NC(=O)c3ccc(Br)cc3)c2C(=O)O)C(C)(C)C1

>  <tested on>
H1N1 (influenza A/New Caledonia/20/99)

>  <quantity>
pIC50

>  <recorded number>
8.06

$$$$
>  <molecule>
CC1(C)CCc2c(sc(NC(=O)c3ccc(N4CCOCC4)cn3)c2C(=O)O)C1

>  <tested on>
H1N1 (influenza A/New Caledonia/20/99)

>  <quantity>
pIC50

>  <recorded number>
6.43

$$$$
>  <molecule>
CC1(C)Cc2c(sc(NC(=O)c3ccc(N4CC(F)(F)C4)cc3)c2C(=O)O)C(C)(C)C1

>  <tested on>
H1N1 (influenza A/New Caledonia/20/99)

>  <quantity>
pIC50

>  <recorded number>
8.59

$$$$
>  <molecule>
COC1CN(c2ccc(C(=O)Nc3sc4c(c3C(=O)O)CCC(C)(C)C4)cc2)C1

>  <tested on>
H1N1 (influenza A/New Caledonia/20/99)

>  <quantity>
pIC50

>  <recorded number>
7.95

$$$$
>  <molecule>
COc1ccc(C(=O)Nc2sc3c(c2C(=O)O)CCC2(CC2)C3)cc1OC

>  <tested on>
H1N1 (influenza A/New Caledonia/20/99)

>  <quantity>
pIC50

>  <recorded number>
7.15

$$$$
>  <molecule>
O=C(Nc1sc2c(c1C(=O)O)CCC1(CC1)C2)c1ccccc1

>  <tested on>
H1N1 (influenza A/New Caledonia/20/99)

>  <quantity>
pIC50

>  <recorded number>
7.05

$$$$
>  <molecule>
CC1(C)Cc2c(sc(NC(=O)c3ccc(NC4CCCCC4)cc3)c2C(=O)O)C(C)(C)C1

>  <tested on>
H1N1 (influenza A/New Caledonia/20/99)

>  <quantity>
pIC50

>  <recorded number>
8.15

$$$$
>  <molecule>
CC1(C)CCc2c(sc(NC(=O)c3ccc(N4CCOCC4)nc3)c2C(=O)O)C1

>  <tested on>
H1N1 (influenza A/New Caledonia/20/99)

>  <quantity>
pIC50

>  <recorded number>
6.59

$$$$
>  <molecule>
CC1(C)Cc2c(sc(NC(=O)c3ccc(NCC4COC4)cc3)c2C(=O)O)C(C)(C)C1

>  <tested on>
H1N1 (influenza A/New Caledonia/20/99)

>  <quantity>
pIC50

>  <recorded number>
8.00

$$$$

Turning now to a further record.
Documented pIC50 of CC1(C)CCc2c(sc(NC(=O)c3ccc(OC(F)(F)F)cc3)c2C(=O)O)C1 : 6.80

###

Test system: UXF 1138
Assay: Cytotoxicity, propidium iodide based monolayer assay
Assay type: cell-based
Conditions: 96 h; UXF 1138 uterine sarcoma, four days of treatment, T/C=50%; read-out: Absolute IC50
Description: The cytotoxicity was tested for compounds of the invention on five different cell-lines, namely LXFL 1121, MAXF 401, MMXF L-636, PRXF PC-3M and UXF 1138 which are respectively lung large cell carcinoma, breast adeno carcinoma, multiple myeloma, prostate adeno carcinoma and uterine sarcoma. A working stock solution of the test compounds was prepared in DMSO at a concentration of 33 mM or 8.25 mM, and small aliquots were stored at −20° C. […]
In this section we review reported pIC50 values for a set of compounds.
In simple prose, pIC50 is minus the logarithm base ten of a concentration in moles per litre.

Here are 5 compounds together with their reported answers.
>  <smiles data>
COC1CN(c2ccc(C(=O)Nc3sc4c(c3C(=O)O)CC(C)(C)CC4(C)C)cc2)C1

>  <tested on>
UXF 1138

>  <pIC50>
6.09

$$$$
>  <smiles data>
COCCNc1ccc(C(=O)Nc2sc3c(c2C(=O)O)CC(C)(C)CC3(C)C)cc1

>  <tested on>
UXF 1138

>  <pIC50>
6.07

$$$$
>  <smiles data>
CC1(C)Cc2c(sc(NC(=O)c3ccc(NC4CCOCC4)cc3)c2C(=O)O)C(C)(C)C1

>  <tested on>
UXF 1138

>  <pIC50>
6.13

$$$$
>  <smiles data>
CC1(C)Cc2c(sc(NC(=O)c3ccc(N4CCOCC4)cc3)c2C(=O)O)C(C)(C)C1

>  <tested on>
UXF 1138

>  <pIC50>
6.01

$$$$
>  <smiles data>
CC1(C)CCc2c(sc(NC(=O)c3ccc(N4CCOCC4)cc3)c2C(=O)O)C1

>  <tested on>
UXF 1138

>  <pIC50>
6.48

$$$$

# evaluate next
// CC1(C)CCc2sc(NC(=O)c3ccccc3)c(C(=O)O)c21 : pIC50 value = 5.03

###

Biological target: CISD1 Gene Product (mitoNEET) (Homo sapiens, UniProt Q9NZ45)
Sequence (Q9NZ45 33-108 limits assumed): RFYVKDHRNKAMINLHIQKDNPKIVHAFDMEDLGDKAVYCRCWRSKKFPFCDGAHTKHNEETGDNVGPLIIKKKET
Assay: Stability of Fe-S cluster binding of purified NEET protein (absorbance 458 nm)
Type: biochemical
Conditions: mitoNEET 20 μM, compound 60 μM, pH 6, at 180 minutes; vehicle control 16%
Description: The modulator effect on the NEET proteins encoded by human CISD1, CISD2, and CISD3 genes by the compounds of the invention has been tested and is reported below. Particularly, the biochemical function of the NEET proteins is measured by the stability of Fe—S cluster binding of the purified NEET proteins. The Fe—S cluster binding capacity of NEET proteins is known to be coordinated by four amino-acids in a stretch of 16 (three Cysteine and one Histidine). […]
Quick reference for Residual cluster bound at end of experiment (Percentage Absorbance 458 nm at time zero) among some compounds

Consider the reported Residual cluster bound at end of experiment (Percentage Absorbance 458 nm at time zero) for these compounds:
>  <compound>
COc1ccc(C(=O)Nc2sc3c(c2C(=O)O)CCC(C)(C)C3)cc1OC [Compound #18]

>  <result>
62% (16%)

$$$$
>  <compound>
COCCNc1ccc(C(=O)Nc2sc3c(c2C(=O)O)CC(C)(C)CC3(C)C)cc1 [Compound #60]

>  <result>
35% (16%)

$$$$

Item: CC1(C)Cc2c(sc(NC(=O)c3ccc(NCC4CCOCC4)cc3)c2C(=O)O)C(C)(C)C1 [Compound #132] | Residual cluster bound at end of experiment (Percentage Absorbance 458 nm at time zero): 19% (16%)

Residual cluster bound at end of experiment (Percentage Absorbance 458 nm at time zero) for CC1CC(C)(C)Cc2sc(NC(=O)c3ccc(NC4CCOCC4)cc3)c(C(=O)O)c21 (stereo not shown) [Compound #136] is 2% (16%)
